# TESTED_ON: human orexin type 2 receptor (Homo sapiens, UniProt O43614)
# Construct: expressed in transfected cells
# TEST_DESCRIPTION: Measurement of orexin type 2 receptor agonist activity (calcium fluorescence, Fluo-4 AM, FDSS)
# Assay type: cell-based
# EXPERIMENTAL_SETUP: test compound 3 μM; CHO cells expressing human OX2 receptor; DMSO = 0%, orexin A (human) = 100%
QUANTITY_NAME: OX2R agonist activity (3 μM, %)

Query: State its OX2R agonist activity (3 μM, %) for this molecule: Cc1ccc(C2CC2C(=O)N2CC[C@H](NS(C)(=O)=O)C2)c(-c2c(F)cccc2F)c1 (stereo partly shown) [Example 318]
Reply: 96

1. CS(=O)(=O)NC[C@H]1CCN1C(=O)[C@@H]1C[C@@]1(F)c1ccccc1-c1c(F)cccc1F [Example 371]
2. CS(=O)(=O)NC1CCCN(C(=O)C2CC2c2cccc(F)c2-c2ccccc2F)C1 (racemic) [Example 105]
Query: For 1 and 2 , which recorded OX2R agonist activity (3 μM, %) is lower? Returns: label corresponding to the selected item.
Reply: 2
(2: 60%, 1: 103%)

###

# TESTED_ON: human orexin type 2 receptor (Homo sapiens, UniProt O43614)
# Construct: expressed in transfected cells
# TEST_DESCRIPTION: Measurement of orexin type 2 receptor agonist activity (calcium fluorescence, Fluo-4 AM, FDSS)
# Type: cell-based
# EXPERIMENTAL_SETUP: test compound 3 μM; CHO cells expressing human OX2 receptor; DMSO = 0%, orexin A (human) = 100%
QUANTITY_NAME: OX2R agonist activity (3 μM, %)

Query: Please report OX2R agonist activity (3 μM, %) for the following compound: CN(C)S(=O)(=O)NC1COCCN(C(=O)[C@@H]2C[C@H]2c2ccccc2-c2c(F)cccc2F)C1 (stereo partly shown)
Reply: 100

Query: Supply recorded OX2R agonist activity (3 μM, %) for `C[C@@H]1CN(C(=O)[C@@H]2C[C@@]2(F)c2ccccc2-c2c(F)cccc2F)[C@@H]1CNS(C)(=O)=O` here.
Reply: 96

Query: Hello, please tell me recorded OX2R agonist activity (3 μM, %) for this one: CC1(C(=O)N2CCC2CNS(C)(=O)=O)CC1c1ccccc1-c1c(F)cccc1F (stereo not shown)
Reply: 100

Query: Using the record for `CCS(=O)(=O)NC[C@@H]1[C@H](F)CN1C(=O)[C@@H]1C[C@@]1(F)c1ccc(C)cc1-c1c(F)cccc1F` , state its measured OX2R agonist activity (3 μM, %).
Reply: 103

Query: Return reported OX2R agonist activity (3 μM, %). Input compound: CS(=O)(=O)NC1CCCN(C(=O)C2CC2c2ccccc2-c2cc(F)ccc2F)C1 (racemic)
Reply: 83

Query: State its OX2R agonist activity (3 μM, %): `O=C([C@@H]1C[C@@]1(F)c1ccc(F)cc1-c1c(F)cccc1F)N1C[C@@H](F)[C@H]1CNS(=O)(=O)NC1CC1`
Reply: 90

Query: Please report the measured OX2R agonist activity (3 μM, %) for CC1CN(C(=O)C2CC2c2ccccc2-c2c(F)cccc2F)CCCC1NS(C)(=O)=O (racemic)
Reply: 83

###

# TESTED_ON: human orexin type 2 receptor (Homo sapiens)
# Construct: expressed in transfected cells
# Sequence (O43614 1-444): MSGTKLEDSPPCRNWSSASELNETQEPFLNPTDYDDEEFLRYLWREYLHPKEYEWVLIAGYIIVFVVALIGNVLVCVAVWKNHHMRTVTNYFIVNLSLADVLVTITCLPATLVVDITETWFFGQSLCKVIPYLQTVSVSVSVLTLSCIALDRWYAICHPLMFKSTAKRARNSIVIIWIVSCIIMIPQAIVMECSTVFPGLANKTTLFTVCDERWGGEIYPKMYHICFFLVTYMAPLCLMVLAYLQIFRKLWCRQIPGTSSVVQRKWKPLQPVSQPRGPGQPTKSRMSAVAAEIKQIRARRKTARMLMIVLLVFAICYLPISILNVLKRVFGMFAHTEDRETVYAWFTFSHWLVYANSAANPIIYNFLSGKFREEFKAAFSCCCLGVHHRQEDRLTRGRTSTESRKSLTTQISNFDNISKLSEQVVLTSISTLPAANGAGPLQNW
# TEST_DESCRIPTION: Measurement of orexin type 2 receptor agonist activity (calcium fluorescence, Fluo-4 AM, FDSS)
# Type: cell-based
# EXPERIMENTAL_SETUP: test compound 3 μM; CHO cells expressing human OX2 receptor; DMSO = 0%, orexin A (human) = 100%
QUANTITY_NAME: OX2R agonist activity (3 μM, %)

Query: Provide only the value of recorded OX2R agonist activity (3 μM, %) for CS(=O)(=O)NC1CCCN(C(=O)C2CC2c2ccc(C(F)F)cc2-c2c(F)cccc2F)C1 (racemic)
Reply: 91

Query: Give the reported OX2R agonist activity (3 μM, %) for this compound. CS(=O)(=O)NC1CCN(C(=O)C2CC2c2ccc(F)cc2-c2ccccc2F)C1 (racemic)
Reply: 78

Query: Provide only the value of recorded OX2R agonist activity (3 μM, %) for CS(=O)(=O)NC1CCN(C(=O)C2CC2c2c(F)cccc2-c2ccccc2Cl)C1 (racemic)
Reply: 89

Query: Using known records, supply OX2R agonist activity (3 μM, %) for CS(=O)(=O)NC12CCC1CN(C(=O)C1CC1c1ccccc1-c1c(F)cccc1F)C2 (centres unmarked)
Reply: 98

Query: Specify OX2R agonist activity (3 μM, %) for CS(=O)(=O)NC1CCN(C(=O)C2CC2c2ccc(F)cc2-c2c(F)cccc2F)C1 (racemic) and stop.
Reply: 111

Query: Consider the compound CS(=O)(=O)NCC1CCN1C(=O)C1CC1c1ccccc1-c1c(F)cccc1F (centres unmarked) [Example 276] . State its measured OX2R agonist activity (3 μM, %).
Reply: 101

Query: Consider the compound Cc1noc(C2(NS(C)(=O)=O)CCN(C(=O)[C@@H]3C[C@@]3(F)c3ccccc3-c3c(F)cccc3F)C2)n1 (mixture of isomers) . State its measured OX2R agonist activity (3 μM, %).
Reply: 88

Query: Identify measured OX2R agonist activity (3 μM, %) corresponding to `CS(=O)(=O)NC[C@H]1[C@H](C(F)F)CN1C(=O)[C@@H]1C[C@@]1(F)c1ccccc1-c1c(F)cccc1F`
Reply: 96

Query: # return recorded OX2R agonist activity (3 μM, %) for entry `C[C@H]1CN(C(=O)[C@@H]2C[C@H]2c2ccccc2-c2c(F)cccc2F)C[C@H]1NS(C)(=O)=O`
Reply: 86

Query: // Input: CC1(NS(C)(=O)=O)CCCN(C(=O)[C@@H]2C[C@H]2c2ccccc2-c2c(F)cccc2F)CC1 (mixture of isomers) . Output its OX2R agonist activity (3 μM, %) only.
Reply: 97

Query: Return OX2R agonist activity (3 μM, %) for the following compound: `CCNS(=O)(=O)NC[C@@H]1[C@H](F)CN1C(=O)[C@@H]1C[C@@]1(F)c1ccc(F)cc1-c1c(F)cccc1F`
Reply: 96

###

# TESTED_ON: human orexin type 2 receptor (Homo sapiens)
# Construct: expressed in transfected cells
# TEST_DESCRIPTION: Measurement of orexin type 2 receptor agonist activity (calcium fluorescence, Fluo-4 AM, FDSS)
# Format: cell-based
# EXPERIMENTAL_SETUP: test compound 3 μM; CHO cells expressing human OX2 receptor; DMSO = 0%, orexin A (human) = 100%
QUANTITY_NAME: OX2R agonist activity (3 μM, %)

Query: Determine reported OX2R agonist activity (3 μM, %) for CS(=O)(=O)NC1CCN(C(=O)C2CC2c2ccccc2-c2c(F)cccc2F)C1 (racemic) [Example 4] ; test system: human orexin type 2 receptor (Homo sapiens).
Reply: 102

Query: Give OX2R agonist activity (3 μM, %) for C[C@@H]1CN(C(=O)[C@@H]2C[C@@]2(F)c2ccccc2-c2c(F)cccc2F)[C@H]1CNS(C)(=O)=O [Example 357] tested on human orexin type 2 receptor (Homo sapiens).
Reply: 96

Query: Report OX2R agonist activity (3 μM, %) on human orexin type 2 receptor (Homo sapiens) for this entry: CN(C)S(=O)(=O)NC1CCN(C(=O)C2CC2c2ccccc2-c2c(F)cccc2F)C1 (racemic) [Example 113]
Reply: 100

Query: Fetch value of OX2R agonist activity (3 μM, %) on human orexin type 2 receptor (Homo sapiens) for CCS(=O)(=O)NC[C@@H]1[C@H](O)CN1C(=O)[C@@H]1C[C@@]1(F)c1ccccc1-c1c(F)cccc1F [Example 374] .
Reply: 98

a. CS(=O)(=O)NC1CCCN(C(=O)C2CC2c2ccccc2-c2ccc(F)cc2F)C1 (racemic) [Example 68]
b. CS(=O)(=O)NC1CN(C(=O)C2CC2c2ccccc2-c2c(F)cccc2F)CC1F (racemic) [Example 137]
Query: Pick one: a or b . Which one has the lower reported OX2R agonist activity (3 μM, %)? Give the label under which the chosen entry appears.
Reply: b

###

# TESTED_ON: human orexin type 2 receptor (Homo sapiens)
# Construct: expressed in transfected cells
# Sequence (O43614 1-444): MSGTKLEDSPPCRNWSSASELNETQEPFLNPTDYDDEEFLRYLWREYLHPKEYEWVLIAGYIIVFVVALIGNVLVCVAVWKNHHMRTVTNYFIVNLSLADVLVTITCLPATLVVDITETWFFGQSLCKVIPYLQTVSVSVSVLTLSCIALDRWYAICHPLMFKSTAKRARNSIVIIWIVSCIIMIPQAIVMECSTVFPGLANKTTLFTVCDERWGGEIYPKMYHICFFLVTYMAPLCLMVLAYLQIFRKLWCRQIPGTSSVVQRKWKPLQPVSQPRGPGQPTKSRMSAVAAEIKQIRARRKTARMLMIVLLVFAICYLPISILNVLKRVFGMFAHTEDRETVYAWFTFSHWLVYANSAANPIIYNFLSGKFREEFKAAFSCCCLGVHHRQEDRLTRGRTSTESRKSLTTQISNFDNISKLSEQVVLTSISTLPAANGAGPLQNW
# TEST_DESCRIPTION: Measurement of orexin type 2 receptor agonist activity (calcium fluorescence, Fluo-4 AM, FDSS)
# Assay type: cell-based
# EXPERIMENTAL_SETUP: test compound 3 μM; CHO cells expressing human OX2 receptor; DMSO = 0%, orexin A (human) = 100%
QUANTITY_NAME: OX2R agonist activity (3 μM, %)

Query: Look up and state reported OX2R agonist activity (3 μM, %) for CS(=O)(=O)NC(C1CC1)[C@@H]1CCN1C(=O)[C@@H]1C[C@@]1(F)c1ccccc1-c1c(F)cccc1F (stereo partly shown)
Reply: 106

Query: # return recorded OX2R agonist activity (3 μM, %) for entry CS(=O)(=O)N[C@H]1CCN(C(=O)C2C(c3ccccc3-c3c(F)cccc3F)C2(F)F)C1 (stereo partly shown) [Example 328]
Reply: 94

Query: // fetch OX2R agonist activity (3 μM, %) given entry `CS(=O)(=O)N[C@@H]1CN(C(=O)[C@@H]2C[C@@]2(F)c2ccccc2-c2c(F)cccc2F)CC[C@H]1O`
Reply: 97

Query: Please list OX2R agonist activity (3 μM, %) recorded for the compound CS(=O)(=O)NC([C@@H]1CCN1C(=O)[C@@H]1C[C@@]1(F)c1ccccc1-c1c(F)cccc1F)C1(O)CC1 (stereo partly shown)
Reply: 99
